- targetOrTestSystem: T1, human CCR8 (human, UniProt P51685 1-355)
- T1 construct: whole, on cells; also called hCCR8
- T1 sequence (P51685 whole entry): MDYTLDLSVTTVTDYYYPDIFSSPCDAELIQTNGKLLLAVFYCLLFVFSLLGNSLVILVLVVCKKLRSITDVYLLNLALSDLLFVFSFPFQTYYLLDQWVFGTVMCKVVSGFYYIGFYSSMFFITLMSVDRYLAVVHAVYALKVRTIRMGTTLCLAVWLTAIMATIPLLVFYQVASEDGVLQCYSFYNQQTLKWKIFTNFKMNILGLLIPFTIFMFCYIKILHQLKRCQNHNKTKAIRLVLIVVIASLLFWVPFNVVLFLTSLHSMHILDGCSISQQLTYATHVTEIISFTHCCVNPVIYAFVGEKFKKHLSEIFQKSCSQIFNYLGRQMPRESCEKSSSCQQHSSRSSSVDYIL
- assayProtocol: FACS on HEK293-human CCR8 cells
Property: Max MFI; scope: individual binders
The reply should be a number in MFI, with the unit left off.

Answered cases to consult:
{"columns": ["binder", "Max MFI / MFI"],
 "data": [
  ["Hu348-8 (antibody, V domains shown, humanized IgG) VH: EVQLVESGGGLVQPGGSLKLSCATSGFSFSNYRMHWLRQASGKGLEWVGVITVKSDNYGANYAASVKGRFTISRDDSKNTAYLQMNSLKTEDTAVYYCSSLGRVAYWGQGTLVTVSS VL: DIQMTQSPSSVSASVGDRVTITCKASQNVDTNVVWYQQKPGQSPKALIYSASSRYSGVPDRFSGSGSGTDFTLTISSLQPEDFATYYCQQHNSFPLTFGQGTKLEIK", 4730],
  ["Hu348-2 (antibody, V domains shown, humanized IgG) VH: EVQLVESGGGLVQPGGSLKLSCATSGFSFSNYRMHWLRQASGKGLEWVGVITVKSDNYGANYAASVKGRFTISRDDSKSSVYLQMNSLKTEDTAVYYCSSLGRVAYWGQGTLVTVSS VL: DIQMTQSPSSVSASVGDRVTITCKASQNVDTNVVWYQQKPGKAPKALIYSASSRYSGVPDRFSGSGSGTDFTLTISSLQPEDFATYYCQQHNSFPLTFGQGTKLEIK", 4740],
  ["Hu348-6 (antibody, V domains shown, humanized IgG) VH: EVQLVESGGGLVQPGGSLKLSCATSGFSFSNYRMHWVRQASGKGLEWVGVITVKSDNYGANYAASVKGRFTISRDDSKSSVYLQMNSLKTEDTAVYYCSSLGRVAYWGQGTLVTVSS VL: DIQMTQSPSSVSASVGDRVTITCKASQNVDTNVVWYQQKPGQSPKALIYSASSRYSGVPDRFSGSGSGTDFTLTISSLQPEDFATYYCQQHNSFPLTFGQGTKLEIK", 1980]
]}

Next:
# input // lookup Max MFI for Hu348-5 (antibody, V domains shown, humanized IgG) VH: EVQLVESGGGLVQPGGSLKLSCAASGFSFSNYAMHWLRQASGKGLEWVGVITVKSDNYGANYAASVKGRFTISRDDSKSSVYLQMNSLKTEDTAVYYCSSLGRVAYWGQGTLVTVSS VL: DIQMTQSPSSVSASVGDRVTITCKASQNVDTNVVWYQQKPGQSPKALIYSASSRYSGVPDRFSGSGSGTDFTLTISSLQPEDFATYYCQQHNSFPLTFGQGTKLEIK
# output 163
